Values were extracted from patent US20210355194A1.

molecular target: S1 Fc fusion protein (SARS-CoV-2, UniProt P0DTC2 14-685); test: phage ELISA
RECORDED_METRIC: ELISA fold over background (fold)

SARS-CoV-2 variant 1-10 (antibody, V domains shown) VH: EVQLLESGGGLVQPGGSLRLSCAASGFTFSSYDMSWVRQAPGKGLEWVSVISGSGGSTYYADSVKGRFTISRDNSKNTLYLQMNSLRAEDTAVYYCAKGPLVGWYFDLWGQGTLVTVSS VL: QSALTQPASVSGSPGQSITISCTGTSSNVGSYNLVSWYQQHPGKAPKLMIYEGTKRPSGVSNRFSGSKSGNTASLTISGLQAEDEADYYCCSYAGSSSFVVFGGGTKLTVL = 1.3
SARS-CoV-2 variant 1-48 (antibody, V domains shown) VH: EVQLLESGGGLVQPGGSLRLSCAASGFTFSSHAMYWVRQAPGKGLEWVSAISGSAGSTYYADSVKGRFTISRDNSKNTLYLQMNSLRAEDTAVYYCAHDTKDFWSGYCIFDPWGQGTLVTVSS VL: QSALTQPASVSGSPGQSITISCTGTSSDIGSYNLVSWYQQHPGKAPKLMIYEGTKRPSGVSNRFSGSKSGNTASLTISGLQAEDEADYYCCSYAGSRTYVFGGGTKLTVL = 0.8
